Tested on: Mus musculus
experimental.protocol: Analgesic activity in Mus musculus albino (mouse) assessed as latency time at 25 mg/kg, ip after 30 min by tail-flick test
Assay type: functional
condition: route intraperitoneal
Binned Time; ranges: one = under 5 s, two = from 5 s up to 6 s, three = 6 s and over

Solved cases (4 shown):
1) Cc1cc(C)n(C(=O)c2ccncc2)n1; three
2) Cc1cc(=O)[nH]n1C(=O)c1ccncc1; two
3) CC(=O)N1N=C(c2ccncc2)OC1C (stereo not drawn); three
4) Clc1ccccc1-c1nnc(-c2cccnc2)[nH]1; two

Okay, now this molecule:
**Q:** Record `Cc1cc(C)n(C(=O)c2cccnc2)n1` — which class?
**A:** three

====

Test system: Mus musculus
experimental.protocol: Analgesic activity in Mus musculus albino (mouse) assessed as latency time at 25 mg/kg, ip after 30 min by tail-flick test
Format: functional
condition: route intraperitoneal
measured.endpoint: Time

// known answers, use as guide
1. Cc1nnc(-c2cccnc2)[nH]1; 7.99 s
2. CC(=O)N1N=C(c2cccnc2)OC1c1ccccc1 (configuration not stated); 8.44 s

**Q:** // lookup Time | system=Mus musculus | key= `Clc1ccccc1-c1nnc(-c2ccncc2)[nH]1`
**A:** 11.2 s

**Q:** Could you do the same for `c1ccc(-c2nnc(-c3ccncc3)[nH]2)cc1` , please?
**A:** 5.33 s

**Q:** Repeat for the following compound: `Cc1n[nH]c(-c2ccncc2)n1`
**A:** 7.62 s

**Q:** Moving on to CC(=O)N1N=C(c2cccnc2)OC1C (configuration not stated)
**A:** 8.95 s

**Q:** Proceed to `O=[N+]([O-])c1ccccc1-c1nnc(-c2ccncc2)[nH]1`
**A:** 11.8 s

====

Listed compounds paired with reported Time
System: Mus musculus
experimental.protocol: Analgesic activity in Mus musculus albino (mouse) assessed as latency time at 25 mg/kg, ip after 30 min by tail-flick test
Format: functional
condition: route intraperitoneal

Check out these entries, answers already filled in.
1) CC(=O)N1N=C(c2ccncc2)OC1c1ccccc1Cl (stereo not drawn); 6.03 s
2) CC(=O)N1N=C(c2ccncc2)OC1c1ccccc1 (stereo not drawn); 6.03 s
3) Cc1cc(=O)[nH]n1C(=O)c1cccnc1; 5.26 s
4) CC(=O)N1N=C(c2cccnc2)OC1c1ccccc1[N+](=O)[O-] (stereo not drawn); 4.93 s
5) CC(=O)N1N=C(c2cccnc2)OC1c1ccccc1Cl (stereo not drawn); 5.16 s
6) O=[N+]([O-])c1ccccc1-c1nnc(-c2cccnc2)[nH]1; 6.15 s
7) CC(=O)N1N=C(c2ccncc2)OC1c1ccccc1[N+](=O)[O-] (stereo not drawn); 4.76 s

Please turn your attention to the following entry.
**Q:** Please look up its Time: `c1ccc(-c2n[nH]c(-c3cccnc3)n2)cc1`
**A:** 4.73 s
